Target: JAK3 (Homo sapiens, UniProt P52333)
Construct: U-937 cells, histiocytic lymphoma cell line; endogenous in cells; host or cells: U-937 (ATCC CRL-1593.2)
Assay: JAK phosphorylation/activation by flow cytometry, pSTAT5 staining in IL-4 stimulated U-937 cells; further: test concentration or dose not given here
Assay type: cell-based
Details: drug 30 min, then IL-4
OBSERVATION_TYPE: JAK3 pStat5-PE Signal

Guide cases for JAK3 pStat5-PE Signal, answers given:
COMPOUND | SYSTEM_NAME | RECORDED_RESULT
O=C(Cc1ccc(-c2ccc(OCCN3CCOCC3)cc2)cn1)NCc1ccccc1 [Control B] | JAK3 (Homo sapiens, UniProt P52333) | 3.42
O=C(Cc1ccccc1)NCc1ccc(OCc2ccccc2)cc1 | JAK3 (Homo sapiens, UniProt P52333) | 3.24
O=C(NCCc1ccc(-c2ccccc2)cc1)c1ccccc1 | JAK3 (Homo sapiens, UniProt P52333) | 5.34
O=S(=O)(Cc1ccc(-c2ccccc2)cc1)NCc1ccccc1 | JAK3 (Homo sapiens, UniProt P52333) | 4.10
O=C(NCc1ccccc1)Oc1ccc(-c2ccccc2)cc1 | JAK3 (Homo sapiens, UniProt P52333) | 5.21

Entry O=S(=O)(CCc1ccccc1)Cc1ccc(-c2ccccc2)cc1 : reported JAK3 pStat5-PE Signal = ?
4.41

Entry O=C(Cc1ccccc1)NCc1ccc(-c2ccccc2)cc1 : reported JAK3 pStat5-PE Signal = ?
4.58

Entry c1ccc(CNCCc2ccc(-c3ccccc3)cc2)cc1 : reported JAK3 pStat5-PE Signal = ?
3.38

----------
Target: JAK3 (Homo sapiens)
Construct: U-937 cells, histiocytic lymphoma cell line; endogenous in cells; host or cells: U-937 (ATCC CRL-1593.2)
Sequence (P52333 1-1124): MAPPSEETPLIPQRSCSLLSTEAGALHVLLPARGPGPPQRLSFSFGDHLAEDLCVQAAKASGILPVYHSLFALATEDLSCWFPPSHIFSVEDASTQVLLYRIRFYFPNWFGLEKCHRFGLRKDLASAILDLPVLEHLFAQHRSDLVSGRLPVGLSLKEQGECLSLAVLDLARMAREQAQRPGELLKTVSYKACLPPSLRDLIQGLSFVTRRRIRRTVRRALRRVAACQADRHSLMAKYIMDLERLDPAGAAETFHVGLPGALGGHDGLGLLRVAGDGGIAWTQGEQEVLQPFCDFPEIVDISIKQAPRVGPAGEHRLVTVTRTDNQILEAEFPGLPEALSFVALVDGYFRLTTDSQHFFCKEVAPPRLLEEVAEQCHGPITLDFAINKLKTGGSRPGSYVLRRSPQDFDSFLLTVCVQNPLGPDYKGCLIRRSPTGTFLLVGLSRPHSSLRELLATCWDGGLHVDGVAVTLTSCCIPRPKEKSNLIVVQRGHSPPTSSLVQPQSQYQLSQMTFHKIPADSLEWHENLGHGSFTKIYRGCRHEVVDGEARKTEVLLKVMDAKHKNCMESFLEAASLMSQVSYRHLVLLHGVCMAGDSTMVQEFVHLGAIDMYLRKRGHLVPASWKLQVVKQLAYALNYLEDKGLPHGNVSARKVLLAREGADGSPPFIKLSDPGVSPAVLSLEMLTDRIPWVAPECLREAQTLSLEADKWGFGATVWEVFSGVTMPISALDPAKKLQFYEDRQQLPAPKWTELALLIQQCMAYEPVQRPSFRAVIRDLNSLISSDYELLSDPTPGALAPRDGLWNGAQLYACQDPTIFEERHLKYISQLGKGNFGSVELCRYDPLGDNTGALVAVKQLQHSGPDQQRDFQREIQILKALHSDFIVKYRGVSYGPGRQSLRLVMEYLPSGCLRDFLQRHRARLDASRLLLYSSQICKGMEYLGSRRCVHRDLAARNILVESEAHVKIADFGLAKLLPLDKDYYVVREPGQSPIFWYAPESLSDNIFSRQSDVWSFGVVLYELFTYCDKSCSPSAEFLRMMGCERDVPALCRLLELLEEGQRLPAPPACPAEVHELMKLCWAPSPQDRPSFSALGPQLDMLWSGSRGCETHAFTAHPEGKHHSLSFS
Assay: JAK phosphorylation/activation by flow cytometry, pSTAT5 staining in IL-4 stimulated U-937 cells; further: test concentration or dose not given here
Assay type: cell-based
Settings: drug 30 min, then IL-4
OBSERVATION_TYPE: JAK3 pStat5-PE Signal/Background
Form rule: numeric answer, no unit written next to it.

Guide cases for JAK3 pStat5-PE Signal/Background, answers given:
MOLECULE | JAK3 pStat5-PE Signal/Background
O=C(NCc1ccccc1)Nc1ccc(-c2ccccc2)cn1 | 1.42
O=C(Cc1ccccc1)NCc1ccc(OCc2ccccc2)cc1 | 1.22
COc1cc2ncnc(Nc3ccc(O)cc3)c2cc1OC | 1.09
c1ccc(CNCCc2ccc(-c3ccccc3)cc2)cc1 | 1.15
O=C(Cc1ccc(-c2ccccc2)cc1)NCc1cccc(F)c1 [Control A] | 1.41
O=C(Cc1ccc(-c2ccc(OCCN3CCOCC3)cc2)cn1)NCc1ccccc1 [Control B] | 1.17
O=C(NCc1ccccc1)Oc1ccc(-c2ccccc2)cc1 | 1.78
O=C(Cc1ccccc1)NCc1ccc(-c2ccccc2)cn1 | 1.14
O=S(=O)(Cc1ccc(Br)cc1)NCc1ccc(-c2ccccc2)cc1 | 1.25
O=C(CCc1ccccc1)Cc1ccc(-c2ccccc2)cn1 | 1.27

Entry COc1cc2ncnc(Nc3ccc(O)c(Br)c3)c2cc1OC : reported JAK3 pStat5-PE Signal/Background = ?
0.56

Entry O=S(=O)(CCc1ccccc1)Cc1ccc(-c2ccccc2)cc1 : reported JAK3 pStat5-PE Signal/Background = ?
1.51

Entry c1ccc(CCSCc2ccc(-c3ccccc3)cc2)cc1 : reported JAK3 pStat5-PE Signal/Background = ?
1.19

Entry O=S(=O)(Cc1ccc(-c2ccccc2)cc1)NCc1ccccc1 : reported JAK3 pStat5-PE Signal/Background = ?
1.40

Entry [O-][S+](CCc1ccccc1)Cc1ccc(-c2ccccc2)cc1 (centres unmarked) : reported JAK3 pStat5-PE Signal/Background = ?
1.27

Entry O=C(NCCc1ccc(-c2ccccc2)cc1)c1ccccc1 : reported JAK3 pStat5-PE Signal/Background = ?
1.82

Entry O=C(Cc1ccccc1)NCc1ccc(-c2ccccc2)cc1 : reported JAK3 pStat5-PE Signal/Background = ?
1.56

Each recorded value in this set is attributed to patent US8124605B2.
